Ref: a collection of fitness landscapes (doi:10.1126/science.1257360)

# enrichment ratio annotations
B1: PhoQ; a variant is named by its letters at X, in order, P23837 (parent)
chain: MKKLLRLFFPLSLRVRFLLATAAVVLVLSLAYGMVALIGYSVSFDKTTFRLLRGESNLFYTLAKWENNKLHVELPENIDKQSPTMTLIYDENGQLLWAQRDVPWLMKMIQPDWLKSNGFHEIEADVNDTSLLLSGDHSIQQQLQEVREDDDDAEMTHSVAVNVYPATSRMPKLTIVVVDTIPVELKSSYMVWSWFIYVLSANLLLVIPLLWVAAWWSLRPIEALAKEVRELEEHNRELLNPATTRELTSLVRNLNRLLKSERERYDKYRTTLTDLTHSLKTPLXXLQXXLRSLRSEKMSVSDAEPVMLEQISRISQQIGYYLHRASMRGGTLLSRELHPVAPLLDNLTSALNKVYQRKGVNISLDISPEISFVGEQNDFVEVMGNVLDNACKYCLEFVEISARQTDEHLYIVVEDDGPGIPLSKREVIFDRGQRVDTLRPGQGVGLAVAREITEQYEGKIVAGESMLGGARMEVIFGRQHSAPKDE

variants of: B1; assay: enrichment ratio after two sorts for PhoP signalling (ratio (wild type AVST 3.29)); higher = more functional; details: with PhoP (E. coli)
Over roughly 140,000 sequences, “enrichment ratio after two sorts for PhoP signalling” has its median near 0; the highest 2% begin near 11. Many of the other results were omitted from the sample, so the highest values are more common in it than they were.

# annotated cases, reported enrichment ratio shown
residue_change=AVVT result=0.37
residue_change=LCTY result="≤ 0.25"
residue_change=SITY result=12.7
residue_change=FSAY result="≤ 0.25"
residue_change=VTRG result="≤ 0.25"
residue_change=AQQN result="≤ 0.25"
residue_change=KYTY result="≤ 0.25"
residue_change=SQTY result=8.07
residue_change=EDLF result="≤ 0.25"
residue_change=WKRY result="≤ 0.25"

Asked: I am curious: what enrichment ratio value has been reported for ATMN ?
Given back: ≤ 0.25

Asked: I am curious: what enrichment ratio value has been reported for RKTG ?
Given back: ≤ 0.25

Asked: I am curious: what enrichment ratio value has been reported for AQAN ?
Given back: 18.7

Asked: I am curious: what enrichment ratio value has been reported for NSGR ?
Given back: ≤ 0.25

Asked: I am curious: what enrichment ratio value has been reported for YYPA ?
Given back: ≤ 0.25

Asked: I am curious: what enrichment ratio value has been reported for HPIF ?
Given back: ≤ 0.25

Asked: I am curious: what enrichment ratio value has been reported for TNRT ?
Given back: ≤ 0.25

Asked: I am curious: what enrichment ratio value has been reported for TQTY ?
Given back: 17.5

Asked: I am curious: what enrichment ratio value has been reported for DHTY ?
Given back: ≤ 0.25

Asked: I am curious: what enrichment ratio value has been reported for DNPA ?
Given back: ≤ 0.25

Asked: I am curious: what enrichment ratio value has been reported for TSTY ?
Given back: 11.6

Asked: I am curious: what enrichment ratio value has been reported for FQTY ?
Given back: ≤ 0.25
